- TEST_TARGET: human FGFR1c + KLB receptor complex on HEK293 iLite FGF21 reporter cells (human, UniProt P11362 22-822; Q86Z14 1-1044)
- Sequence (P11362 22-822, chain 1 of 2): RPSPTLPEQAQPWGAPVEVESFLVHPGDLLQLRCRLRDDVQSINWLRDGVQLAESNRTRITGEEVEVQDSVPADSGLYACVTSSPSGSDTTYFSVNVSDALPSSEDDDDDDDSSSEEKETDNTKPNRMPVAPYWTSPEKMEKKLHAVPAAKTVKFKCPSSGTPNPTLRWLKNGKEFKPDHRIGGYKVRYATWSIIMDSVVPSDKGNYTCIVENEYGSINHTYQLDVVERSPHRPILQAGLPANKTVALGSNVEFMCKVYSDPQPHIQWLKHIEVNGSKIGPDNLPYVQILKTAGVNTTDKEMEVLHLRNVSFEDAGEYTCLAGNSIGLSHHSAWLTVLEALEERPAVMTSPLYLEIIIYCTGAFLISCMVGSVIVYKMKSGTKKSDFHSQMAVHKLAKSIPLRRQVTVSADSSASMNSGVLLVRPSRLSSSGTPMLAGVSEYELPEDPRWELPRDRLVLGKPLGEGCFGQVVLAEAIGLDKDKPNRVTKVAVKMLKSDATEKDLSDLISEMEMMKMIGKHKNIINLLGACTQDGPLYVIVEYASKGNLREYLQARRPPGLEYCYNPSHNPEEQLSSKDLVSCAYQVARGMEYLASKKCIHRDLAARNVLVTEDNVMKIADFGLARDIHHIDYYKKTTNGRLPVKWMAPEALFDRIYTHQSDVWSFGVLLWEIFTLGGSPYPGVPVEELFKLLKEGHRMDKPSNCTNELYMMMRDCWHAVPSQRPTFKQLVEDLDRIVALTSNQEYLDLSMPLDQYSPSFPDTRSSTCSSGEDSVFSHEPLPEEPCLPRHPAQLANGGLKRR
- Sequence (Q86Z14 whole entry, chain 2 of 2): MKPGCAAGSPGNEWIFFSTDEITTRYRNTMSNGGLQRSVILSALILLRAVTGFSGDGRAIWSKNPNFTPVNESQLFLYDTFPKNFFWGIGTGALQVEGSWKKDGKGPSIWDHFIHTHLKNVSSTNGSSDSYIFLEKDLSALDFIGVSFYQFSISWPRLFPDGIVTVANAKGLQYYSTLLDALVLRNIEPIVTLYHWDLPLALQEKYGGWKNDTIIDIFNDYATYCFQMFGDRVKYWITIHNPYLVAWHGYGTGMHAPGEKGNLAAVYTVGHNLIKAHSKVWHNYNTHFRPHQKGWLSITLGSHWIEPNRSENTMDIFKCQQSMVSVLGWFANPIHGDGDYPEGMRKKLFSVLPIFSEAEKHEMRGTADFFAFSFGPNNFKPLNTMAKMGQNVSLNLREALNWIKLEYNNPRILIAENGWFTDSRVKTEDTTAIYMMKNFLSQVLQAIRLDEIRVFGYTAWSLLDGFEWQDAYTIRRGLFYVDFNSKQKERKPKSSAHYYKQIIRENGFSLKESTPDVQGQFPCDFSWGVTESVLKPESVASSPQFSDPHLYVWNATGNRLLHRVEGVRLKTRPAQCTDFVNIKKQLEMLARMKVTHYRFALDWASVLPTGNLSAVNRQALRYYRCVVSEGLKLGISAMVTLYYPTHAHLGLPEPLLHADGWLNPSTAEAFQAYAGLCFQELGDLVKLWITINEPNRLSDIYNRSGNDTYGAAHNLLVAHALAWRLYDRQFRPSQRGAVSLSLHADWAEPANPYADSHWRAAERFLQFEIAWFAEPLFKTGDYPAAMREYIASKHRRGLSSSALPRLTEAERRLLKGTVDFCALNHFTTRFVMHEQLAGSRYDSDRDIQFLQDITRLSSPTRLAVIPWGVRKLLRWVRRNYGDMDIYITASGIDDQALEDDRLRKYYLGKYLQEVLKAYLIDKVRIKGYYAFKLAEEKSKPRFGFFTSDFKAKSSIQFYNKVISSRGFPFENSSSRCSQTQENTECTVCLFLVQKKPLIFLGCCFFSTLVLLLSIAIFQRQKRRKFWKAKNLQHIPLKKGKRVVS
- EXPERIMENTAL_PROTOCOL: cell-based or functional assay
MEASURE_NAME: Emax

BINDER: Ab0311 (antibody, IgG4, V domains shown, IgG4 PE) VH: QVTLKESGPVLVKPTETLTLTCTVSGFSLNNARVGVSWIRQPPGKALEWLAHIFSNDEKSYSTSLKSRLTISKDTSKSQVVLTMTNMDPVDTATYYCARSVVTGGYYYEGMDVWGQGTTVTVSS VL: SYVLTQPPSVSVAPGQTARITCGGNNIGSESVHWYQQKPGQAPVLVVYYESDRPSGIPERFSGSNSGNTATLTISRVEAGDEADYYCQVWDGESDHVVFGGGTKLTVLG
MEASURE_NAME: Emax
OBSERVED_VALUE: 1080%
--
BINDER: Ab0340 (antibody, IgG4, V domains shown, IgG4 PE) VH: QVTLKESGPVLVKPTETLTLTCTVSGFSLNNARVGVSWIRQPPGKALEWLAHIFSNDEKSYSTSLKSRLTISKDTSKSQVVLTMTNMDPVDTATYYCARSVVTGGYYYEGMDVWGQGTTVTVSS VL: SYVLTQPPSVSVAPGQTARITCGGSNIGSESVHWYQQKPGQAPVLVVYAESDRPSGIPERFSGSNSGNTATLTISRVEAGDEADYYCQVWEGSSDHVVFGGGTKLTVLG
MEASURE_NAME: Emax
OBSERVED_VALUE: 912%
--
BINDER: Ab0354 (antibody, IgG4, V domains shown, IgG4 PE) VH: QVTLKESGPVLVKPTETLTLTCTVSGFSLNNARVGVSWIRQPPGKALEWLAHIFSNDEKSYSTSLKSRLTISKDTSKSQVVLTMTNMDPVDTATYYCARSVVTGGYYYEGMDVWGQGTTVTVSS VL: SYVLTQPPSVSVAPGQTARITCGGSNIGSESVHWYQQKPGQAPVLVVYEESDRPSGIPERFSGSNSGNTATLTISRVEAGDEADYYCQVWHGSSDHVVFGGGTKLTVLG
MEASURE_NAME: Emax
OBSERVED_VALUE: 878%
--
BINDER: Ab0362 (antibody, IgG4, V domains shown) VH: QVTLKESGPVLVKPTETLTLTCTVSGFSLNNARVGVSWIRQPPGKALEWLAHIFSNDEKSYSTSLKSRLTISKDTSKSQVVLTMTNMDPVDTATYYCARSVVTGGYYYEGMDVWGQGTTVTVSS VL: SYVLTQPPSVSVAPGQTARITCGGSNIGSESVHWYQQKPGQAPVLVVYTESDRPSGIPERFSGSNSGNTATLTISRVEAGDEADYYCQVWAGSSDHVVFGGGTKLTVLG
MEASURE_NAME: Emax
OBSERVED_VALUE: 662%
